Target: Paired box protein Pax-6 (Homo sapiens) (UniProt P26367)
Sequence (P26367 whole entry, looked up): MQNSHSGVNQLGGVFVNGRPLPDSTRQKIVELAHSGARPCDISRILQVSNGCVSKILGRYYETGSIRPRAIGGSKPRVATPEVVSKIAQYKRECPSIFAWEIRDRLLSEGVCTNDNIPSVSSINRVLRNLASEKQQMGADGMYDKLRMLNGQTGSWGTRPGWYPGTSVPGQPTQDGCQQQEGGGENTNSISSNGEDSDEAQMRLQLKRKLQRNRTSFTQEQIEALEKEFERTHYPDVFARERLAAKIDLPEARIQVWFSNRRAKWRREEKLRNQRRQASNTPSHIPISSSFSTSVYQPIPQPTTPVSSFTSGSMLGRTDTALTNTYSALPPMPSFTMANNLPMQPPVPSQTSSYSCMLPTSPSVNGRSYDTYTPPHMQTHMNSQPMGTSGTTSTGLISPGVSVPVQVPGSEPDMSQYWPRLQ
Assay: ATG_Pax6_CIS: Attagene CIS-FACTORIAL HepG2 Assay for human Paired Box 6 (PAX6) (AID 2282956)
Settings: HepG2 CIS-FACTORIAL PAX6 reporter transcription, RNA readout; actives raise or lower the signal
The source made the active and inactive calls. The calls were made as follows: active = hit-call score of the fitted dose curve at least 0.9, where 1 is the maximum; inactive = score below 0.9.
Hello, when you answer, please use one of the following outcomes: label 1 for active, label 0 for inactive

Task: For this compound, state the assay outcome: CC(=O)C(C)O (stereo unspecified)
Result: label 0

====

Biological target: THRA (gene 7067) (UniProt P10827)
Sequence (P10827 whole entry, looked up): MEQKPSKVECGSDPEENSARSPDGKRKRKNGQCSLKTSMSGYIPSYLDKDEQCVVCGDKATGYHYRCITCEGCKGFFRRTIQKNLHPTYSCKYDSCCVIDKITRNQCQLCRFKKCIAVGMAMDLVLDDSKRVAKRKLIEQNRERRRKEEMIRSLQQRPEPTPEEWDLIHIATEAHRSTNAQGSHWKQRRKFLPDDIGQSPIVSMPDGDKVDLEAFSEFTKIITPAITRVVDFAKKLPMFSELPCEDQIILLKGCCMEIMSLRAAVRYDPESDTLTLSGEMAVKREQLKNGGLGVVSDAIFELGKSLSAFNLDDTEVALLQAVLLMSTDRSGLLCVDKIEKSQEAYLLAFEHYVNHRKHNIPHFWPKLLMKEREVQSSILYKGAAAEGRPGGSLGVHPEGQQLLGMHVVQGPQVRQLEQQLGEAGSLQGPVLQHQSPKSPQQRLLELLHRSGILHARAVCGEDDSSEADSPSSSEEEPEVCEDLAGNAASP
Experiment: TOX21_TRA_COA_Agonist_Followup_ratio: Tox21 Thyroid Hormone Receptor alpha Agonism through Coactivator Recruitment Follow-Up Assay, Ratio (AID 2283948)
The source made the active and inactive calls. Rule for the calls: active = hit-call score of the fitted dose curve at least 0.9, where 1 is the maximum; inactive = score below 0.9.

- smiles.structure: "Cc1cc(C)nc(NS(=O)(=O)c2ccc(N)cc2)n1"
  test.system: "THRA (gene 7067) (UniProt P10827)"
  outcome: "inactive"
- smiles.structure: "CC(=O)Nc1ccc(C(=O)CCl)cc1"
  test.system: "THRA (gene 7067) (UniProt P10827)"
  outcome: "inactive"
- smiles.structure: "O=Cc1ccccc1S(=O)(=O)O"
  test.system: "THRA (gene 7067) (UniProt P10827)"
  outcome: "inactive"
- smiles.structure: "C[C@H](CCC(=O)NCC(=O)O)[C@H]1CC[C@H]2[C@@H]3[C@H](O)C[C@@H]4C[C@H](O)CC[C@]4(C)[C@H]3C[C@H](O)[C@]12C"
  test.system: "THRA (gene 7067) (UniProt P10827)"
  outcome: "inactive"

====

Test system: DIO3 (gene 1735)
Assay: CCTE_GLTED_hDIO3: CCTE's human Deiodinase 3 (DIO3) Inhibition Assay, Great Lakes Toxicology and Ecology Division (GLTED) Lab (AID 2284055)
Calls of active or inactive are those of the source. How the source made its calls: active means hit-call score of the fitted dose curve at least 0.9, where 1 is the maximum; inconclusive means response in the unintended direction; inactive means score below 0.9.
Hello, when you answer, please use one of the following outcomes: active, inactive

- compound: "CCCCCCCCCCCCCCN(CCO)CCO"
  discrete.label: "active"
- compound: "CCCCC(CC)COC(=O)c1ccc(O)cc1 (stereo unspecified)"
  discrete.label: "active"
- compound: "C=C(C)C(=O)OCCOC1CC2CC1C1C=CCC21 (stereo unspecified)"
  discrete.label: "active"
- compound: "CCCCCCCCC=CCCCCCCCC1=NCCN1CCO"
  discrete.label: "active"
- compound: "CCCCCC(C=O)=Cc1ccccc1"
  discrete.label: "active"
- compound: "Cc1cc(S(=O)(=O)O)ccc1N=Nc1c(O)ccc2ccccc12"
  discrete.label: "inactive"
- compound: "CCc1cc(Cc2cc(CC)cc(C(C)(C)C)c2O)c(O)c(C(C)(C)C)c1"
  discrete.label: "active"
- compound: "CCCCCCCCCCCCCC(=O)OCC(O)CO (stereo unspecified)"
  discrete.label: "active"
- compound: "CC(C)CCCCCCCCCCCCCCC(=O)O"
  discrete.label: "active"
- compound: "C=C1CC[C@H](O)C/C1=C/C=C1\\CCC[C@]2(C)[C@@H]([C@H](C)/C=C/[C@H](C)C(C)C)CC[C@@H]12"
  discrete.label: "active"

Now examine the next entry.
Task: For this compound, state the assay outcome: Oc1ccc2cc(SSc3ccc4cc(O)ccc4c3)ccc2c1
Result: active
